Just for reference, ChEMBL document CHEMBL1148876 is where these values come from.

Listed below: remaining at 24 h values for each entry.
- method notes: Stability in PBS assessed as percentage of remaining compound after 24 hrs
- Format: physicochemical
- recorded conditions: read-out: Activity
test readout: remaining at 24 h (%)

molecule	value
CC(=O)O[C@@]12CO[C@@H]1C[C@H](O)[C@@]1(C)C(=O)[C@H](OC(=O)CCC(=O)O)C3=C(C)[C@@H](OC(=O)[C@H](O)[C@@H](NC(=O)c4ccccc4)c4ccccc4)C[C@@](O)([C@@H](OC(=O)c4ccccc4)[C@H]21)C3(C)C	75.1
CC(=O)O[C@H]1C(=O)[C@@]2(C)[C@H]([C@H](OC(=O)c3ccccc3)[C@]3(O)C[C@H](OC(=O)[C@H](O)[C@@H](NC(=O)c4ccccc4)c4ccccc4)C(C)=C1C3(C)C)[C@]1(OC(C)=O)CO[C@@H]1C[C@@H]2O	85.2
CC(=O)O[C@@]12CO[C@@H]1C[C@H](O)[C@@]1(C)C(=O)[C@H](OC(=O)NCC(=O)O)C3=C(C)[C@@H](OC(=O)[C@H](O)[C@@H](NC(=O)c4ccccc4)c4ccccc4)C[C@@](O)([C@@H](OC(=O)c4ccccc4)[C@H]21)C3(C)C	91.6

* * *

- Tested on: MDCK
- method notes: Ratio of permeability from basolateral to apical over apical to basolateral side of the MDR-MDCK cells at 5 uM after 120 mins
- Format: ADME, cell-based
- recorded conditions: human, mdck, 2 h, 5 µM

compound	measurement qualifier	Ratio
CC(=O)O[C@@]12CO[C@@H]1C[C@H](O)[C@@]1(C)C(=O)[C@H](OC(=O)N(C)C(C)(C)C(=O)O)C3=C(C)[C@@H](OC(=O)[C@H](O)[C@@H](NC(=O)c4ccccc4)c4ccccc4)C[C@@](O)([C@@H](OC(=O)c4ccccc4)[C@H]21)C3(C)C	=	1
CC(=O)O[C@@]12CO[C@@H]1C[C@H](O)[C@@]1(C)C(=O)[C@H](OC(=O)CCC(=O)O)C3=C(C)[C@@H](OC(=O)[C@H](O)[C@@H](NC(=O)c4ccccc4)c4ccccc4)C[C@@](O)([C@@H](OC(=O)c4ccccc4)[C@H]21)C3(C)C	=	1.3
CC(=O)O[C@@]12CO[C@@H]1C[C@H](O)[C@@]1(C)C(=O)[C@H](O)C3=C(C)[C@@H](OC(=O)[C@H](O)[C@@H](NC(=O)OC(C)(C)C)c4ccccc4)C[C@@](O)([C@@H](OC(=O)c4ccccc4)[C@H]21)C3(C)C.O.O.O [DOCETAXEL]	>	25
CC(=O)O[C@H]1C(=O)[C@]2(C)[C@@H](OC(=O)NCC(=O)O)C[C@H]3OC[C@@]3(OC(C)=O)[C@H]2[C@H](OC(=O)c2ccccc2)[C@]2(O)C[C@H](OC(=O)[C@H](O)[C@@H](NC(=O)c3ccccc3)c3ccccc3)C(C)=C1C2(C)C	=	0.9
CC(=O)O[C@@]12CO[C@@H]1C[C@H](O)[C@@]1(C)C(=O)[C@H](OC(=O)N[C@H]3CCOC3=O)C3=C(C)[C@@H](OC(=O)[C@H](O)[C@@H](NC(=O)c4ccccc4)c4ccccc4)C[C@@](O)([C@@H](OC(=O)c4ccccc4)[C@H]21)C3(C)C	>	3
CC(=O)O[C@@]12CO[C@@H]1C[C@H](O)[C@@]1(C)C(=O)[C@H](OC(=O)N(C)[C@H](C)[C@H](O)c3ccccc3)C3=C(C)[C@@H](OC(=O)[C@H](O)[C@@H](NC(=O)c4ccccc4)c4ccccc4)C[C@@](O)([C@@H](OC(=O)c4ccccc4)[C@H]21)C3(C)C	>	127
CC(=O)O[C@@]12CO[C@@H]1C[C@H](O)[C@@]1(C)C(=O)[C@H](OC(=O)N(C)CC(=O)O)C3=C(C)[C@@H](OC(=O)[C@H](O)[C@@H](NC(=O)c4ccccc4)c4ccccc4)C[C@@](O)([C@@H](OC(=O)c4ccccc4)[C@H]21)C3(C)C	=	0.9
COC(=O)CNC(=O)O[C@H]1C(=O)[C@@]2(C)[C@H]([C@H](OC(=O)c3ccccc3)[C@]3(O)C[C@H](OC(=O)[C@H](O)[C@@H](NC(=O)c4ccccc4)c4ccccc4)C(C)=C1C3(C)C)[C@]1(OC(C)=O)CO[C@@H]1C[C@@H]2O	>	5.4

* * *

- Species on record: Homo sapiens
- method notes: Stability assessed as half life in human plasma
test readout: half-life (h)

molecule	test readout	unit spec	value
CC(=O)O[C@@]12CO[C@@H]1C[C@H](O)[C@@]1(C)C(=O)[C@H](OC(=O)NCC(=O)O)C3=C(C)[C@@H](OC(=O)[C@H](O)[C@@H](NC(=O)c4ccccc4)c4ccccc4)C[C@@](O)([C@@H](OC(=O)c4ccccc4)[C@H]21)C3(C)C	half-life	h	52
CC(=O)O[C@@]12CO[C@@H]1C[C@H](O)[C@@]1(C)C(=O)[C@H](OC(=O)CCC(=O)O)C3=C(C)[C@@H](OC(=O)[C@H](O)[C@@H](NC(=O)c4ccccc4)c4ccccc4)C[C@@](O)([C@@H](OC(=O)c4ccccc4)[C@H]21)C3(C)C	half-life	h	15.3

* * *

Listed below: half-life values for each entry.
- method notes: Stability assessed as half life in PBS buffer
- Type: physicochemical

molecule	half-life
CC(=O)O[C@@]12CO[C@@H]1C[C@H](O)[C@@]1(C)C(=O)[C@H](OC(=O)NCC(=O)O)C3=C(C)[C@@H](OC(=O)[C@H](O)[C@@H](NC(=O)c4ccccc4)c4ccccc4)C[C@@](O)([C@@H](OC(=O)c4ccccc4)[C@H]21)C3(C)C	> 60 h
CC(=O)O[C@@]12CO[C@@H]1C[C@H](O)[C@@]1(C)C(=O)[C@H](OC(=O)CCC(=O)O)C3=C(C)[C@@H](OC(=O)[C@H](O)[C@@H](NC(=O)c4ccccc4)c4ccccc4)C[C@@](O)([C@@H](OC(=O)c4ccccc4)[C@H]21)C3(C)C	> 60 h
CC(=O)O[C@H]1C(=O)[C@@]2(C)[C@H]([C@H](OC(=O)c3ccccc3)[C@]3(O)C[C@H](OC(=O)[C@H](O)[C@@H](NC(=O)c4ccccc4)c4ccccc4)C(C)=C1C3(C)C)[C@]1(OC(C)=O)CO[C@@H]1C[C@@H]2O	> 60 h

* * *

Listed below: Papp A→B at 2 h, 5 µM values for each entry.
- method notes: Apparent permeability from apical to basolateral side in MDR-MDCK cells overexpressing human p-glycoprotein at 5 uM after 120 mins
- Type: ADME, cell-based
- recorded conditions: MDCK-MDR1

compound	Papp A→B at 2 h, 5 µM
CC(=O)O[C@@]12CO[C@@H]1C[C@H](O)[C@@]1(C)C(=O)[C@H](OC(=O)NCCC(=O)O)C3=C(C)[C@@H](OC(=O)[C@H](O)[C@@H](NC(=O)c4ccccc4)c4ccccc4)C[C@@](O)([C@@H](OC(=O)c4ccccc4)[C@H]21)C3(C)C	< 0.64 ×10⁻⁶ cm/s
COC(=O)CNC(=O)O[C@H]1C(=O)[C@@]2(C)[C@H]([C@H](OC(=O)c3ccccc3)[C@]3(O)C[C@H](OC(=O)[C@H](O)[C@@H](NC(=O)c4ccccc4)c4ccccc4)C(C)=C1C3(C)C)[C@]1(OC(C)=O)CO[C@@H]1C[C@@H]2O	< 0.62 ×10⁻⁶ cm/s
CC(=O)O[C@@]12CO[C@@H]1C[C@H](O)[C@@]1(C)C(=O)[C@H](OC(=O)NCCO)C3=C(C)[C@@H](OC(=O)[C@H](O)[C@@H](NC(=O)c4ccccc4)c4ccccc4)C[C@@](O)([C@@H](OC(=O)c4ccccc4)[C@H]21)C3(C)C	< 0.21 ×10⁻⁶ cm/s
CC(=O)O[C@@]12CO[C@@H]1C[C@H](O)[C@@]1(C)C(=O)[C@H](OC(=O)N[C@H]3CCOC3=O)C3=C(C)[C@@H](OC(=O)[C@H](O)[C@@H](NC(=O)c4ccccc4)c4ccccc4)C[C@@](O)([C@@H](OC(=O)c4ccccc4)[C@H]21)C3(C)C	< 0.07 ×10⁻⁶ cm/s
CC(=O)O[C@@]12CO[C@@H]1C[C@H](O)[C@@]1(C)C(=O)[C@H](OC(=O)NCC(=O)O)C3=C(C)[C@@H](OC(=O)[C@H](O)[C@@H](NC(=O)OC(C)(C)C)c4ccccc4)C[C@@](O)([C@@H](OC(=O)c4ccccc4)[C@H]21)C3(C)C	< 0.2 ×10⁻⁶ cm/s
CC(=O)O[C@@]12CO[C@@H]1C[C@H](O)[C@@]1(C)C(=O)[C@H](OC(=O)N(C)[C@H](C)[C@H](O)c3ccccc3)C3=C(C)[C@@H](OC(=O)[C@H](O)[C@@H](NC(=O)c4ccccc4)c4ccccc4)C[C@@](O)([C@@H](OC(=O)c4ccccc4)[C@H]21)C3(C)C	< 0.2 ×10⁻⁶ cm/s
CC(=O)O[C@@]12CO[C@@H]1C[C@H](O)[C@@]1(C)C(=O)[C@H](O)C3=C(C)[C@@H](OC(=O)[C@H](O)[C@@H](NC(=O)OC(C)(C)C)c4ccccc4)C[C@@](O)([C@@H](OC(=O)c4ccccc4)[C@H]21)C3(C)C.O.O.O [DOCETAXEL]	< 0.62 ×10⁻⁶ cm/s
